Cited source: patent US20260297060A1

- Assay Explanation: Pharmacokinetics after 21 days dosing in the efficacy study (plasma, tumor and brain concentrations; plasma AUC at steady state), Example 14
- Type: in vivo, female BALB/c nude mice
- Condition Label: mouse, tumor, po; 3 mg/kg p.o. BID x 21 days; 24 h; mean ± SEM; read-out: Concentration in Tumor
- Procedure: Agents were tested in the A375 human melanoma xenografts. […] Dabrafenib, Compound 26 and Compound 141 in female BALB/c nude mice plasma (K2-EDTA), tumor and brain homogenate were analyzed by LC-MS/MS (Triple Quad 6500+ Low Mass). […]
Quantity Kind: concentration at 24 h (ng/g)

INSERT INTO measurements (compound, units_symbol, recorded_result) VALUES
  ('CCN(C)S(=O)(=O)Nc1ccc(F)c(Oc2ccc3ncn([C@H]4COC5(CCN(C6CC7(C6)CN(c6cc8c(cc6F)c(N6CCC(=O)NC6=O)nn8C)C7)CC5)C4)c(=O)c3c2)c1C#N [Compound 26]', 'ng/g', 54.3);

---

- Assay Explanation: Example 8 pharmacokinetics assay for PKPD study (plasma, tumor, liver)
- Type: in vivo, BALB/c nude mice
- Condition Label: mouse, tumor, po, 35 mg/kg, p.o., single dose; 12 h; read-out: Concentration in Tumor (mean ± SEM)
Quantity Kind: concentration at 12 h

INSERT INTO results (molecule, recorded_result) VALUES
  ('COC(=O)N[C@@H](C)CNc1nccc(-c2cn(C(C)C)nc2-c2cc(Cl)cc(NS(C)(=O)=O)c2F)n1 [Encorafenib, encorafenib, reference compound]', '16.1 ng/g');

---

- Assay Explanation: Pharmacokinetics after 21 days dosing in the efficacy study (plasma, tumor and brain concentrations; plasma AUC at steady state), Example 14
- Assay type: in vivo, female BALB/c nude mice
- Condition Label: mouse, plasma, po; 3 mg/kg p.o. QD x 21 days; 8 h; mean ± SEM
Quantity Kind: concentration at 8 h (ng/mL)

INSERT INTO results (compound, units_symbol, recorded_result) VALUES
  ('CCN(C)S(=O)(=O)Nc1ccc(F)c(Oc2ccc3ncn(C4CC5(CCN(C6CC7(C6)CN(c6cc8c(cc6F)c(N6CCC(=O)NC6=O)nn8C)C7)CC5)C4)c(=O)c3c2)c1C#N (stereo not shown)', 'ng/mL', 869);

---

- Assay Explanation: Pharmacokinetics in female BALB/c nude mice bearing A375 xenografts, 1 day dosing (PK and PD study): plasma, tumor and brain concentrations, AUC
- Format: in vivo
- Condition Label: mouse, plasma, po, 100 mg/kg, 100 mg/kg p.o. QD × 1 day; 10 h; read-out: Mean Concentration in Plasma ± SEM
Quantity Kind: concentration at 10 h (ng/mL)

INSERT INTO results (compound, quantity_kind, recorded_result) VALUES
  ('CC(C)(C)c1nc(-c2cccc(NS(=O)(=O)c3c(F)cccc3F)c2F)c(-c2ccnc(N)n2)s1 [Dabrafenib, dabrafenib, reference compound]', 'concentration at 10 h', 25.9);

---

- Assay Explanation: Example 6 pharmacokinetics assay for PKPD study (plasma, tumor, liver)
- Type: in vivo, BALB/c nude mice
- Condition Label: mouse, tumor, po; 10 mg/kg, single dose; 24 h; read-out: Concentration in Tumor (mean ± SEM)
Quantity Kind: concentration at 24 h (ng/g)

INSERT INTO results (compound, quantity_kind, recorded_result) VALUES
  ('Cn1nc(N2CCC(=O)NC2=O)c2cc(F)c(C3CCC(N4CCC5(CC4)CC(n4cnc6ccc(Oc7c(F)ccc(NS(=O)(=O)C8CCCC8)c7C#N)cc6c4=O)C5)CC3)cc21 (single isomer, unassigned)', 'concentration at 24 h', 59.5),
  ('CCN(C)S(=O)(=O)Nc1ccc(F)c(Oc2ccc3ncn(C4CC5(CCN(C6CCC(c7cc8c(cc7F)c(N7CCC(=O)NC7=O)nn8C)CC6F)CC5)C4)c(=O)c3c2)c1C#N (single isomer, unassigned)', 'concentration at 24 h', 57.6),
  ('CCN(C)S(=O)(=O)Nc1ccc(F)c(Oc2ccc3ncc([C@@H]4COC5(CCN(C6CCC(c7cc8c(cc7F)c(N7CCC(=O)NC7=O)nn8C)CC6)CC5)C4)nc3c2)c1C#N (single isomer, unassigned)', 'concentration at 24 h', 29.8);
